# Tgt: Dopamine receptor
Recorded measurements of IC50, one per entry
Numeric answer only, unit nM assumed.

Example entries and their recorded answers appear below.
Compound	IC50 / nM
CC(=O)NCCCN1CC[C@@H]2C(C1)c1cc(F)ccc1N2c1ccc(F)cc1.Cl (stereo partly drawn)	10
CC(=O)NCCCCN1CC[C@@H]2C(C1)c1cc(F)ccc1N2c1ccc(F)cc1.Cl (stereo partly drawn)	15
CC(=O)NCCN1CC[C@@H]2C(C1)c1cc(F)ccc1N2c1ccc(F)cc1.Cl (stereo partly drawn)	16

Challenge: Name the reported IC50 value associated with the compound CC(=O)NCCCCCCN1CC[C@@H]2C(C1)c1cc(F)ccc1N2c1ccc(F)cc1.Cl (stereo partly drawn)
Response given: 8

Challenge: Name the reported IC50 value associated with the compound CC(C(=O)CN1CC[C@@H]2C(C1)c1cc(F)ccc1N2c1ccc(F)cc1)c1ncco1.Cl (stereo partly drawn)
Response given: 10

Challenge: Name the reported IC50 value associated with the compound CCOC(=O)NCCCCN1CC[C@@H]2C(C1)c1cc(F)ccc1N2c1ccc(F)cc1.Cl (stereo partly drawn)
Response given: 11

Challenge: Name the reported IC50 value associated with the compound CC(=O)NCCCCCN1CC[C@@H]2C(C1)c1cc(F)ccc1N2c1ccc(F)cc1.Cl (stereo partly drawn)
Response given: 9

Challenge: Name the reported IC50 value associated with the compound Cl.NCCCCN1CC[C@@H]2C(C1)c1cc(F)ccc1N2c1ccc(F)cc1 (stereo partly drawn)
Response given: 28
